Tested on: SF-295 CNS
Assay: NCI-60 one-dose screen, 48 h
Conditions: 10 µM unless noted
About 83,000 compounds went through this panel and 20% of them were active in at least one assay; those are over-represented in the sample as a whole. Calls of active or inactive are those of the source. Rule for the calls: active = growth percent below 10; inactive = the rest.
Just give me one of these, please: t for active, f for inactive

Can you look up the reported call for O=C1c2ccccc2C(=O)N1[N+](=O)[O-] for me? f

Can you look up the reported call for O=[N+]([O-])c1ccc(F)c([N+](=O)[O-])c1F for me? f

Can you look up the reported call for OC1CCCCC1N1CCC(c2ccccc2)CC1 (configuration not stated) for me? f

Can you look up the reported call for Cc1cc(NC(=O)CCc2ccc(N3C(N)=NC(N)=NC3(C)C)cc2)ccc1S(=O)(=O)F for me? t

Can you look up the reported call for CC(C)N=C(NC(C)C)N1CC1 for me? f

Can you look up the reported call for COc1ccc(CN2CCN(Cc3ccccc3)CC2)c(O)c1 for me? f

Can you look up the reported call for O=C(CCc1ccco1)NC1CCN(CC2(c3ccc(Cl)cc3)CCC2)CC1 for me? t

Can you look up the reported call for C[C@]12CCC(=O)CC1CC[C@@H]1C2CC[C@@]2(C)C1CC[C@@H]2OC(=O)CC[Se][Se]CCC(=O)O[C@H]1CCC2[C@@H]3CCC4CC(=O)CC[C@]4(C)C3CC[C@@]21C (some centres not stated) for me? f

Can you look up the reported call for CCCCN(CCCC)CC(O)c1ccccc1 (configuration not stated) for me? f

Can you look up the reported call for CC1(C)CC2(CC(C)(C)c3cc(O)c(O)cc32)c2cc(O)c(O)cc21 for me? f

Can you look up the reported call for Cc1ccccc1O for me? f

Can you look up the reported call for CCN1CC2(CN(CC)C1=S)C(=O)NC(=O)NC2=O for me? f

---

System: KM12 colon
Experiment: NCI-60 one-dose screen, 48 h (100 = growth as untreated, 0 = no growth, -100 = all killed)
Conditions: 10 µM unless noted
About 83,000 compounds went through this panel and 20% of them were active in at least one assay; those are over-represented in the sample as a whole.
Could you please report measured growth for the items listed next?
Give a bare numeral; the unit % is implied.

Retrieve growth measured for CC1(CF)NC(=O)NC1=O (stereo not given) and print it. 106

Retrieve growth measured for C/C(=C\C(=O)O[C@H]1[C@@H]2[C@H](C)CC[C@H]2[C@]2(C)O[C@@]1(C1CCCCC1)C[C@H]2OC(=O)CO)c1ccccc1 and print it. 38.2

Retrieve growth measured for OC1CCCCC1N1CCC(c2ccccc2)CC1 (stereo not given) and print it. 104

Retrieve growth measured for ClCCN(CCCl)c1nc(Cl)c(C2CC(c3ccccc3)=NN2c2ccccc2)s1 (stereo not given) and print it. 98.3

Retrieve growth measured for CCOC(=O)/C(C#N)=C/c1ccc(N(CCCl)CCCl)cc1 and print it. 106

Retrieve growth measured for NC(=O)OCC(CO)(c1ccccc1)c1ccccc1 and print it. 96.6

Retrieve growth measured for O=C(C(=O)N1CCCC1)c1cn(CCCCCn2cc(C(=O)C(=O)N3CCCC3)c3ccccc32)c2ccccc12 and print it. 86.3

Retrieve growth measured for N#CC1c2ccccc2C=CN1C(=O)c1ccc(N(CCCl)CCCl)cc1 (stereo not given) and print it. 98

Retrieve growth measured for CC1(C)N=C(N)N=C(N)N1c1ccc(CNC(=O)Nc2ccc(S(=O)(=O)F)c(Cl)c2)c(Cl)c1 and print it. 21.2

Retrieve growth measured for COC(=O)C1CC2c3ccccc3C1c1ccccc12 (stereo not given) and print it. 113
